# System: recombinant IgG producing Chinese Hamster Ovary cell line (CHO cell line #1)
# assayMethodText: 24-well plate media supplement screening: peak viable cell density (CellTiter 96 AQueous)
# Assay type: cell-based
# conditionLabel: HTS experiments; CDM #1, relative to unsupplemented control
reportedEndpoint: Effect on Peak VCD

Field: example entries. Status: answers known.
Enquiry: Would you kindly share the measured Effect on Peak VCD for O=C(CO)[C@@H](O)[C@H](O)[C@H](O)CO [Fructose] ?
Return: No change

Enquiry: Would you kindly share the measured Effect on Peak VCD for O=C(O)CCCC[C@@H]1SC[C@@H]2NC(=O)N[C@@H]21 [Biotin] ?
Return: No change

Enquiry: Would you kindly share the measured Effect on Peak VCD for CC(=O)C(=O)[O-].[Na+] [Sodium pyruvate] ?
Return: Decrease

Enquiry: Would you kindly share the measured Effect on Peak VCD for NC(=O)c1cccnc1 [Nicotinamide] ?
Return: Decrease

Enquiry: Would you kindly share the measured Effect on Peak VCD for N[C@@H](CCC(=O)N[C@@H](CS)C(=O)NCC(=O)O)C(=O)O [Glutathione, Glutathione, reduced] ?
Return: Decrease

More entries:
Enquiry: Would you kindly share the measured Effect on Peak VCD for Cc1cc2nc3c(=O)[nH]c(=O)nc-3n(C[C@H](O)[C@H](O)[C@H](O)CO)c2cc1C [Riboflavin] ?
Return: Decrease

Enquiry: Would you kindly share the measured Effect on Peak VCD for CC(=O)N[C@H]1C(O)O[C@H](CO)[C@H](O)[C@@H]1O (stereo partly drawn) [GalNAc, N-acetylgalactosamine] ?
Return: No change

Enquiry: Would you kindly share the measured Effect on Peak VCD for CC(=O)N[C@H]1C(O)O[C@H](CO)[C@@H](O)[C@@H]1O (stereo partly drawn) [GlcNAc, N-acetylglucosamine] ?
Return: Decrease

Enquiry: Would you kindly share the measured Effect on Peak VCD for N[C@@H](CSSC[C@H](N)C(=O)O)C(=O)O [Cystine, L-cystine] ?
Return: Decrease

====

Parameter Concentration Target (Range) for Increase of Peak VCD: see the listing below.
# System: recombinant IgG producing Chinese Hamster Ovary cell line (CHO cell line #1)
# assayMethodText: JMP7 statistical identification of high performance media supplementation from a 15-supplement screening experiment
# Format: cell-based
# conditionLabel: predicted amount for addition into the unsupplemented control media

Enquiry: Would you kindly share the measured Concentration Target (Range) for Increase of Peak VCD for [Cl-].[Cl-].[Zn+2] [Zinc chloride] ?
Return: +2.05 × 10^−3 g/L

As a next step, examine the compound that follows.
Enquiry: Would you kindly share the measured Concentration Target (Range) for Increase of Peak VCD for "OC[C@H]1O[C@@H]2O[C@H]3[C@H](O)[C@@H](O)[C@@H](O[C@H]4[C@H](O)[C@@H](O)[C@@H](O[C@H]5[C@H](O)[C@@H](O)[C@@H](O[C@H]6[C@H](O)[C@@H](O)[C@@H](O[C@H]7[C@H](O)[C@@H](O)[C@@H](O[C@H]8[C@H](O)[C@@H](O)[C@@H](O[C@H]1[C@H](O)[C@H]2O)O[C@@H]8CO)O[C@@H]7CO)O[C@@H]6CO)O[C@@H]5CO)O[C@@H]4CO)O[C@@H]3CO" ?
Return: +0.16 (0.14-0.18) g/L

====

# Tested on: recombinant IgG producing Chinese Hamster Ovary cell line (CHO cell line #1)
# assayMethodText: 24-well plate media supplement screening: peak viable cell density (CellTiter 96 AQueous)
# Assay type: cell-based
# conditionLabel: HTS experiments; CDM #1, relative to unsupplemented control
Where a SMILES comes first, the peptide text is derived from it.
reportedEndpoint: Effect on Peak VCD

Field: example entries. Status: answers known.
Enquiry: Could you share what Effect on Peak VCD was measured for C[C@H](N)C(=O)N[C@@H](CCC(N)=O)C(=O)O [L-alanyl-L-glutamine] (H-Ala-Gln-OH) , tested on recombinant IgG producing Chinese Hamster Ovary cell line (CHO cell line #1)?
Return: Increase

Enquiry: Could you share what Effect on Peak VCD was measured for O=C([O-])CC(O)(CC(=O)[O-])C(=O)[O-].[Na+].[Na+].[Na+] [Sodium citrate] , tested on recombinant IgG producing Chinese Hamster Ovary cell line (CHO cell line #1)?
Return: No change

Enquiry: Could you share what Effect on Peak VCD was measured for Cc1ncc(CO)c(CO)c1O.Cl [Vitamin B-6, Pyridoxine hydrochloride] , tested on recombinant IgG producing Chinese Hamster Ovary cell line (CHO cell line #1)?
Return: No change

Enquiry: Could you share what Effect on Peak VCD was measured for "NCCS(=O)(=O)O" , tested on recombinant IgG producing Chinese Hamster Ovary cell line (CHO cell line #1)?
Return: Decrease

Enquiry: Could you share what Effect on Peak VCD was measured for "CNCC(=O)O" , tested on recombinant IgG producing Chinese Hamster Ovary cell line (CHO cell line #1)?
Return: No change

More entries:
Enquiry: Could you share what Effect on Peak VCD was measured for "CCCCC/C=C\C/C=C\C/C=C\C/C=C\CCCC(=O)O" , tested on recombinant IgG producing Chinese Hamster Ovary cell line (CHO cell line #1)?
Return: Decrease

Enquiry: Could you share what Effect on Peak VCD was measured for "OC[C@H]1O[C@@H]2O[C@H]3[C@H](O)[C@@H](O)[C@@H](O[C@H]4[C@H](O)[C@@H](O)[C@@H](O[C@H]5[C@H](O)[C@@H](O)[C@@H](O[C@H]6[C@H](O)[C@@H](O)[C@@H](O[C@H]7[C@H](O)[C@@H](O)[C@@H](O[C@H]1[C@H](O)[C@H]2O)O[C@@H]7CO)O[C@@H]6CO)O[C@@H]5CO)O[C@@H]4CO)O[C@@H]3CO" , tested on recombinant IgG producing Chinese Hamster Ovary cell line (CHO cell line #1)?
Return: Increase

Enquiry: Could you share what Effect on Peak VCD was measured for "Nc1ccc(C(=O)O)cc1" , tested on recombinant IgG producing Chinese Hamster Ovary cell line (CHO cell line #1)?
Return: Decrease

Enquiry: Could you share what Effect on Peak VCD was measured for "O=C[C@H](O)[C@@H](O)[C@H](O)CO" , tested on recombinant IgG producing Chinese Hamster Ovary cell line (CHO cell line #1)?
Return: No change
